biological target: human CD3 (human, UniProt P07766 23-207; P04234 22-171; P09693 23-182); assay: cell-based or functional assay
Sequence (P07766 23-207, chain 1 of 3): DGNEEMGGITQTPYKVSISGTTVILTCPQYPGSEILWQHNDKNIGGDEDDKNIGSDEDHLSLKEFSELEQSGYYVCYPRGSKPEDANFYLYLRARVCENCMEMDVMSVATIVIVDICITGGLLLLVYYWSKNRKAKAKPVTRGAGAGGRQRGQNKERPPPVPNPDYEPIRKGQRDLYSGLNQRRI
Sequence (P04234 22-171, chain 2 of 3): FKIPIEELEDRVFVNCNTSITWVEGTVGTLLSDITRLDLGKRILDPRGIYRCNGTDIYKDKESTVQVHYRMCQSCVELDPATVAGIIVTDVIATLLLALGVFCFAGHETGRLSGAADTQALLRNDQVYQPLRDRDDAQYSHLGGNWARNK
Sequence (P09693 23-182, chain 3 of 3): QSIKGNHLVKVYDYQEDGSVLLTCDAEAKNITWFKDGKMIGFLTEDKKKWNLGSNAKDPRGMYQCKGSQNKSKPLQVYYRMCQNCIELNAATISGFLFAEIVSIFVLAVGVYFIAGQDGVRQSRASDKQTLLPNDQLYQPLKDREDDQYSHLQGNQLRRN
Consider the following binders; for each one, report its EC50_Fold change (Jurkat-NFAT-luciferase activation, normalized to ch40-C12-C10-E9).
Please give the number followed by its unit.

Answered cases to consult:
* hu40E9-L2H7 (antibody, V domains shown) VH: EVQLVQSGAEVKKPGSSVKVSCKASGYTFSSYVIHWVRQAPGQGLEWMGYINPGNGVIKYNEKFKGRVTLTSDKSTSTAYMELSSLRSEDTAVYYCARDSYSSYDGFAYWGQGTLVTVSS VL: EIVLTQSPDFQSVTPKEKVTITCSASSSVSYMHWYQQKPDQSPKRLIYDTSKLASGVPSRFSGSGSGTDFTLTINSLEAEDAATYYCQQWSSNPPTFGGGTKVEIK | 1.18 fold
* ch40-C12-C10-E9 (antibody, V domains shown) VH: EVQLQLSGPELVKPGASVKMSCKASGYTFSSYVIHWVKQKPGQGLEWIGYINPYNDVIKYNEKFKGKATLTSDKSSSTAYMELSSLTSEDSAVYYCARDSYYSYDGFAYWGQGTLVTVSA VL: QIVLTQSPAIMSASPGEKVTMTCSASSSVSYMHWYQQKSGTSPKRWIYDTSKLASGVPARFSGSGSGTSYSLTISSMEAEDAATYYCQQWSSNPPTFGGGTKVEIK | 1 fold

EC50_Fold change (Jurkat-NFAT-luciferase activation, normalized to ch40-C12-C10-E9) for hu40E9-L2H16 (antibody, V domains shown) VH: EVQLVQSGAEVKKPGSSVKVSCKASGYTFSDYVIHWVRQAPGQGLEWMGYINPYNDVIKYNEKFKGRVTLTSDKSTSTAYMELSSLRSEDTAVYYCARDSYYSYDGFAYWGQGTLVTVSS VL: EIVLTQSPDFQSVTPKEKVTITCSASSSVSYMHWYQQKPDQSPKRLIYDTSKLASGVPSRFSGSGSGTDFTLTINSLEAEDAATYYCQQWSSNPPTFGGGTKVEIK is 6.18 fold

Cited source: patent US20250223358A1
